Reported values of GI50 for individual entries
System: LoVo
Experiment: SRB colorimetric assay of cell growth and viability, LoVo
Assay type: cell-based, human
Details: 48 hours exposure
Where a SMILES comes first, the peptide text is derived from it. Bridges are numbered along the chain shown (N, C = ends). [ ]: non-standard residue; d: D form. The star is where a group is joined. d(aIle) = CC[C@H](C)[C@@H](N)C(=O)O; d(aThr) = C[C@@H](O)[C@@H](N)C(=O)O; Hexanoyl(5-Me) = CC(C)CCCC(=O)*; Orn = NCCC[C@H](N)C(=O)O; Dhb = C/C=C(\N)C(=O)O
Give just the numeric value; nM need not be written.

C/C=C1\NC(=O)[C@H](Cc2ccccc2)NC(=O)[C@@H](C(C)C)NC(=O)[C@@H]([C@@H](C)CC)NC(=O)[C@H](NC(=O)[C@H](NC(=O)[C@H](CCCN)NC(=O)[C@H]2CCCN2C(=O)[C@H](NC(=O)[C@H](CC(C)C)NC(=O)[C@@H](NC(=O)[C@H](NC(=O)CCCC(C)C)C(C)C)[C@@H](C)O)C(C)C)[C@@H](C)CC)[C@@H](C)OC(=O)[C@H](C(C)C)NC1=O [Compound 45, [Leu^11]-KF] ({Hexanoyl(5-Me)}-[dV]TL[dV][dP][Orn][d(aIle)][d(aThr)][d(aIle)][dV]F[Dhb]V; ester 8-C)	113

Read the next record carefully.
Look up GI50 for this compound: C/C=C1\NC(=O)[C@H](Cc2ccccc2)NC(=O)[C@@H](C(C)C)NC(=O)[C@@H]([C@@H](C)CC)NC(=O)[C@H](NC(=O)[C@H](NC(=O)[C@H](CCCN)NC(=O)[C@H]2CCCN2C(=O)[C@H](NC(=O)[C@@H](NC(=O)[C@@H](NC(=O)[C@@H](CCC(N)=O)NC(=O)CCCC(C)C)[C@@H](C)O)C(C)C)C(C)C)[C@@H](C)CC)[C@@H](C)OC(=O)[C@H](C(C)C)NC1=O [Compound 40, [D-Gln^13]-KF]
664

###

Tested on: SK-BR-3
Assay: SRB colorimetric assay of cell growth and viability, SK-BR-3
Type: cell-based, human
Conditions: 48 hours exposure
readoutType: TGI SK-BR-3
Don't forget the unit after the value.

Solved entries (count: 2):
C/C=C1\NC(=O)[C@H](Cc2ccccc2)NC(=O)[C@@H](C(C)C)NC(=O)[C@@H]([C@@H](C)CC)NC(=O)[C@H](NC(=O)[C@H](NC(=O)[C@H](CCCN)NC(=O)[C@H]2CCCN2C(=O)[C@H](NC(=O)[C@@H](NC(=O)[C@@H](NC(=O)[C@H](NC(=O)CCCC(C)C)C(C)C)[C@@H](C)O)C(C)C)C(C)C)[C@@H](C)CC)[C@H](C)OC(=O)[C@H](C(C)C)NC1=O [Compound 2, [D-Thr^6]-KF]	6.77E−06 Molar
C/C=C1\NC(=O)[C@H](Cc2ccccc2)NC(=O)[C@@H](C(C)C)NC(=O)[C@@H]([C@@H](C)CC)NC(=O)[C@H](NC(=O)[C@H](NC(=O)[C@H](CCCCN)NC(=O)[C@H]2CCCN2C(=O)[C@H](NC(=O)[C@@H](NC(=O)[C@@H](NC(=O)[C@H](NC(=O)CCCC(C)C)C(C)C)[C@@H](C)O)C(C)C)C(C)C)[C@@H](C)CC)[C@@H](C)OC(=O)[C@H](C(C)C)NC1=O [Compound 5, [Lys^8]-KF]	3.06E−07 Molar

Which measured TGI SK-BR-3 value corresponds to C/C=C1\NC(=O)[C@H](Cc2ccccc2)NC(=O)[C@@H](C(C)C)NC(=O)[C@@H]([C@@H](C)CC)NC(=O)[C@H](NC(=O)[C@H](NC(=O)[C@H](CCCN)NC(=O)[C@H]2CCCN2C(=O)[C@H](NC(=O)[C@@H](NC(=O)[C@@H](NC(=O)[C@H](NC(=O)CCCCCCCCCC)C(C)C)[C@@H](C)O)C(C)C)C(C)C)[C@@H](C)CC)[C@@H](C)OC(=O)[C@H](C(C)C)NC1=O [Compound 15, [Und^14]-KF] ?
7.43E−08 Molar

###

Test system: LoVo-Dox
Assay: SRB colorimetric assay of cell growth and viability, LoVo-Dox
Assay type: cell-based, human
Details: 48 hours exposure
From the text: The finality of this assay is to interrupt the growth of a “in vitro” tumor cell culture by means a continued exhibition of the cells to the sample to be testing. A colorimetric type of assay, using sulforhodamine B (SRB) reaction has been adapted for a quantitative measurement of cell growth and viability [following the technique described by Philip Skehan, et al. (1990), New colorimetric cytotoxicity assay for anticancer drug screening, J. Natl. Cancer Inst., 82:1107-1112]. […]
Where a SMILES comes first, the peptide text is derived from it. Bridges are numbered along the chain shown (N, C = ends). [ ]: non-standard residue; d: D form. The star is where a group is joined. d(aIle) = CC[C@H](C)[C@@H](N)C(=O)O; d(aThr) = C[C@@H](O)[C@@H](N)C(=O)O; Hexanoyl(5-Me) = CC(C)CCCC(=O)*; Orn = NCCC[C@H](N)C(=O)O; Dhb = C/C=C(\N)C(=O)O
readoutType: GI50 (nM)
Record the value in nM, omitting the unit from your answer.

Field: example entries. Status: answers known.
C/C=C1\NC(=O)[C@H](Cc2ccccc2)NC(=O)[C@@H](C(C)C)NC(=O)[C@@H]([C@@H](C)CC)NC(=O)[C@H](NC(=O)[C@H](NC(=O)[C@H](CCCN)NC(=O)[C@H]2CCCN2C(=O)[C@H](NC(=O)[C@@H](NC(=O)CNC(=O)CCCC(C)C)C(C)C)C(C)C)[C@@H](C)CC)[C@@H](C)OC(=O)[C@H](C(C)C)NC1=O [Compound 53, [Gly^12, noD-Val^13]-KF] ({Hexanoyl(5-Me)}-GV[dV][dP][Orn][d(aIle)][d(aThr)][d(aIle)][dV]F[Dhb]V; ester 7-C)	7490
C/C=C1\NC(=O)[C@H](Cc2ccccc2)NC(=O)[C@@H](C(C)C)NC(=O)[C@@H]([C@@H](C)CC)NC(=O)[C@H](NC(=O)[C@H](NC(=O)[C@H](CCCN)NC(=O)[C@H]2CCCN2C(=O)[C@H](NC(=O)[C@@H](NC(=O)[C@@H](NC(=O)[C@@H](CCC(=O)O)NC(=O)CCCC(C)C)[C@@H](C)O)C(C)C)C(C)C)[C@@H](C)CC)[C@@H](C)OC(=O)[C@H](C(C)C)NC1=O [Compound 39, [D-Glu^13]-KF]	889

Now consider the entry below.
What is its GI50 for LoVo-Dox? Entry: C/C=C1\NC(=O)[C@H](Cc2ccccc2)NC(=O)[C@@H](C(C)C)NC(=O)[C@@H]([C@@H](C)CC)NC(=O)[C@H](NC(=O)[C@H](NC(=O)[C@H](CCCN)NC(=O)[C@H]2CCCN2C(=O)[C@H](NC(=O)[C@@H](NC(=O)[C@@H](NC(=O)[C@H](NC(=O)CCCCC(C)(F)F)C(C)C)[C@@H](C)O)C(C)C)C(C)C)[C@@H](C)CC)[C@@H](C)OC(=O)[C@H](C(C)C)NC1=O [Compound 28, [6,6-dFHep^14]-KF]
172

###

Test system: LoVo
Assay: SRB colorimetric assay of cell growth and viability, LoVo
Format: cell-based, human
Settings: LOVO; 48 hours exposure
Where a SMILES comes first, the peptide text is derived from it. Bridges are numbered along the chain shown (N, C = ends). [ ]: non-standard residue; d: D form. The star is where a group is joined. Bip = N[C@@H](Cc1ccc(-c2ccccc2)cc1)C(=O)O; d(aIle) = CC[C@H](C)[C@@H](N)C(=O)O; d(aThr) = C[C@@H](O)[C@@H](N)C(=O)O; Hexanoyl(5-Me) = CC(C)CCCC(=O)*; Phg = N[C@H](C(=O)O)c1ccccc1; Orn = NCCC[C@H](N)C(=O)O; Dhb = C/C=C(\N)C(=O)O
readoutType: log10(GI50) (log10 of the value in nM)
Friendly reminder: values = log10 of GI50, unit nM.

Example compounds with recorded log10(GI50):
C/C=C1\NC(=O)[C@H](Cc2ccccc2Cl)NC(=O)[C@@H](C(C)C)NC(=O)[C@@H]([C@@H](C)CC)NC(=O)[C@H](NC(=O)[C@H](NC(=O)[C@H](CCCN)NC(=O)[C@H]2CCCN2C(=O)[C@H](NC(=O)[C@@H](NC(=O)[C@@H](NC(=O)[C@H](NC(=O)CCCC(C)C)C(C)C)[C@@H](C)O)C(C)C)C(C)C)[C@@H](C)CC)[C@@H](C)OC(=O)[C@H](C(C)C)NC1=O [Compound 81, [Phe(2-Cl)^3]-KF]	1.95
C/C=C1\NC(=O)[C@H](Cc2ccc(Cl)cc2)NC(=O)[C@@H](C(C)C)NC(=O)[C@@H]([C@@H](C)CC)NC(=O)[C@H](NC(=O)[C@H](NC(=O)[C@H](CCCN)NC(=O)[C@H]2CCCN2C(=O)[C@H](NC(=O)[C@@H](NC(=O)[C@@H](NC(=O)[C@H](NC(=O)CCCC(C)C)C(C)C)[C@@H](C)O)C(C)C)C(C)C)[C@@H](C)CC)[C@@H](C)OC(=O)[C@H](C(C)C)NC1=O [Compound 83, [Phe(4-Cl)^3]-KF]	1.48
C/C=C1\NC(=O)[C@H](Cc2ccc(F)c(F)c2)NC(=O)[C@@H](C(C)C)NC(=O)[C@@H]([C@@H](C)CC)NC(=O)[C@H](NC(=O)[C@H](NC(=O)[C@H](CCCN)NC(=O)[C@H]2CCCN2C(=O)[C@H](NC(=O)[C@@H](NC(=O)[C@@H](NC(=O)[C@H](NC(=O)CCCC(C)C)C(C)C)[C@@H](C)O)C(C)C)C(C)C)[C@@H](C)CC)[C@@H](C)OC(=O)[C@H](C(C)C)NC1=O [Compound 84, [Phe(3,4-F2)^3]-KF]	1.50

Requested field: log10(GI50). Item: C/C=C1\NC(=O)[C@H](c2ccccc2)NC(=O)[C@@H](C(C)C)NC(=O)[C@@H]([C@@H](C)CC)NC(=O)[C@H](NC(=O)[C@H](NC(=O)[C@H](CCCN)NC(=O)[C@H]2CCCN2C(=O)[C@H](NC(=O)[C@@H](NC(=O)[C@@H](NC(=O)[C@H](NC(=O)CCCC(C)C)C(C)C)[C@@H](C)O)C(C)C)C(C)C)[C@@H](C)CC)[C@@H](C)OC(=O)[C@H](C(C)C)NC1=O [Compound 87, [Phg^3]-KF] ({Hexanoyl(5-Me)}-[dV]TV[dV][dP][Orn][d(aIle)][d(aThr)][d(aIle)][dV][Phg][Dhb]V; ester 8-C)
2.98

Report log10(GI50) for C/C=C1\NC(=O)[C@H](Cc2ccc(-c3ccccc3)cc2)NC(=O)[C@@H](C(C)C)NC(=O)[C@@H]([C@@H](C)CC)NC(=O)[C@H](NC(=O)[C@H](NC(=O)[C@H](CCCN)NC(=O)[C@H]2CCCN2C(=O)[C@H](NC(=O)[C@@H](NC(=O)[C@@H](NC(=O)[C@H](NC(=O)CCCC(C)C)C(C)C)[C@@H](C)O)C(C)C)C(C)C)[C@@H](C)CC)[C@@H](C)OC(=O)[C@H](C(C)C)NC1=O [Compound 86, [Bip^3]-KF] ({Hexanoyl(5-Me)}-[dV]TV[dV][dP][Orn][d(aIle)][d(aThr)][d(aIle)][dV][Bip][Dhb]V; ester 8-C) please.
1.80

Where do these numbers come from? They come from patent US20070117743A1.
